The values you see were collected from patent US20250011413A1.

Kindly supply the reported Kd values for the records listed here.
- targetOrSystem: T1, Human PF4 (CXCL4), biotinylated, without heparin (human, UniProt P02776 32-101, biotinylated with EZ-link-Sulfo-NHS-LC-Biotin (sites not given))
- T1 construct: Immobilised on streptavidin biosensors for BLI; also called PF4 alone; platelet factor 4
- T1 sequence: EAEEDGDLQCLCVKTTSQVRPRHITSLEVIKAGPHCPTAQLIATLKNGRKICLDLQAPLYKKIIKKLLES
- measurementNotes: BLI (Octet), biotinylated PF4 without heparin on streptavidin sensors, scFv 1 µg/mL, 1:1 model

Challenge: Could you tell me which Kd is on file for Wildtype scFv (KKO-derived single chain variable fragment) (scFv, VL-(G4S)3 linker-VH; expressed in E. coli BL21 from pADL-22c, purified on Ni-NTA as histidine-tagged scFv, about 28 kDa; also called WT; KKO-scFv; not shown: histidine tag from the pADL-22c vector) scFv: DIQMIQSQKFMSTSVGDRVTVTCKASQNVGTNVAWYQQKPGQSPNALIYSASYRYSGVPDRFTGSGSGTDFTLTITNVQSEDLADYFCQQYNSYPLTFGTGTKLDLKGGGGSGGGGSGGGGSVQLQQSGAELVKPGASVKLSCKASGYTFTNYFIYWVKQRPGQGLEWIGEINPRNGDTDFNEKFESRATLTVDKSSSTAYMQLSSLTSEDSAIYYCTRSPYGNNYGFTYWGQGTLVTVSA ?
Response given: 1320 nM

Challenge: Requested read-out: Kd. Entry: Mutant E scFv, scFv(Y156H, D180G, Q233P) (scFv, VL-linker-VH; histidine-tagged, from E. coli BL21; also called Mut E; not shown: histidine tag from the pADL-22c vector) scFv: DIQMIQSQKFMSTSVGDRVTVTCKASQNVGTNVAWYQQKPGQSPNALIYSASYRYSGVPDRFTGSGSGTDFTLTITNVQSEDLADYFCQQYNSYPLTFGTGTKLDLKGGGGSGGGGSGGGGSVQLQQSGAELVKPGASVKLSCKASGYTFTNYFIHWVKQRPGQGLEWIGEINPKNGDTGFNEKFESRATLTVDKSSSTAYMQLSSLTSEDSAIYYCTRSPYGNNYGFTYWGPGTLVTVSA
Response given: 0.954 nM

Challenge: Sample Mutant C scFv, scFv(S50N, Y53H) (scFv, VL-linker-VH; histidine-tagged, from E. coli BL21; also called Mut C; not shown: histidine tag from the pADL-22c vector) scFv: DIQMIQSQKFMSTSVGDRVTVTCKASQNVGTNVAWYQQKPGQSPNALIYNASHRYSGVPDRFTGSGSGTDFTLTITNVQSEDLADYFCQQYNSYPLTFGTGTKLDLKGGGGSGGGGSGGGGSVQLQQSGAELVKPGASVKLSCKASGYTFTNYFIYWVKQRPGQGLEWIGEINPRNGDTDFNEKFESRATLTVDKSSSTAYMQLSSLTSEDSAIYYCTRSPYGNNYGFTYWGQGTLVTVSA — what was its Kd?
Response given: 1660 nM

Challenge: Quick check: Kd of Mutant B scFv, scFv(R18K, N152K, D180N) (scFv, VL-linker-VH; histidine-tagged, from E. coli BL21; also called Mut B; not shown: histidine tag from the pADL-22c vector) scFv: DIQMIQSQKFMSTSVGDKVTVTCKASQNVGTNVAWYQQKPGQSPNALIYSASYRYSGVPDRFTGSGSGTDFTLTITNVQSEDLADYFCQQYNSYPLTFGTGTKLDLKGGGGSGGGGSGGGGSVQLQQSGAELVKPGASVKLSCKASGYTFTKYFIYWVKQRPGQGLEWIGEINPRNGDTNFNEKFESRATLTVDKSSSTAYMQLSSLTSEDSAIYYCTRSPYGNNYGFTYWGQGTLVTVSA ?
Response given: 1.69 nM

Challenge: Value lookup for Kd; key = Mutant D scFv, scFv(Y156H) (scFv, VL-linker-VH; histidine-tagged, from E. coli BL21; also called Mut D; not shown: histidine tag from the pADL-22c vector) scFv: DIQMIQSQKFMSTSVGDRVTVTCKASQNVGTNVAWYQQKPGQSPNALIYSASYRYSGVPDRFTGSGSGTDFTLTITNVQSEDLADYFCQQYNSYPLTFGTGTKLDLKGGGGSGGGGSGGGGSVQLQQSGAELVKPGASVKLSCKASGYTFTNYFIHWVKQRPGQGLEWIGEINPRNGDTDFNEKFESRATLTVDKSSSTAYMQLSSLTSEDSAIYYCTRSPYGNNYGFTYWGQGTLVTVSA
Response given: 5.83 nM

Challenge: // returns reported Kd for input Mutant F scFv, scFv(E183V, E186K, G223R) (scFv, VL-linker-VH; histidine-tagged, from E. coli BL21; also called Mut F; not shown: histidine tag from the pADL-22c vector) scFv: DIQMIQSQKFMSTSVGDRVTVTCKASQNVGTNVAWYQQKPGQSPNALIYSASYRYSGVPDRFTGSGSGTDFTLTITNVQSEDLADYFCQQYNSYPLTFGTGTKLDLKGGGGSGGGGSGGGGSVQLQQSGAELVKPGASVKLSCKASGYTFTNYFIYWVKQRPGQGLEWIGEINPRNGDTDFNVKFKSRATLTVDKSSSTAYMQLSSLTSEDSAIYYCTRSPYRNNYGFTYWGQGTLVTVSA
Response given: 0.607 nM
